From: the supplement of paper PMC10307832

Please go through the items and note down their relative viability.
Test system: RERF-LC-KJ
Test: relative viability (nuclei count vs DMSO), 5 days (fraction); higher = more cells survive
Conditions: first compound 0.03162 µM
Numbers only.

INSERT INTO measurements (compound, assay_readout, value) VALUES
  ('NC(=O)Nc1cc(-c2cccc(F)c2)sc1C(=O)N[C@H]1CCCNC1 [AZD7762] + Nc1nc2[nH]cc(CCc3ccc(C(=O)N[C@@H](CCC(=O)O)C(=O)O)cc3)c2c(=O)[nH]1 [Pemetrexed] (partner 0.2 µM)', 'relative viability', 0.461);

Next compound, please.
Indicate its recorded relative viability; the compound in question is NC(=O)Nc1cc(-c2cccc(F)c2)sc1C(=O)N[C@H]1CCCNC1 [AZD7762] + CC1(C)CCC(c2ccc(Cl)cc2)=C(CN2CCN(c3ccc(C(=O)NS(=O)(=O)c4ccc(N[C@H](CCN5CCOCC5)CSc5ccccc5)c(S(=O)(=O)C(F)(F)F)c4)cc3)CC2)C1 [Navitoclax] (partner 0.5 µM) 0.913

* * *

Test system: NCI-H2023
Assay: relative viability (nuclei count vs DMSO), 5 days (fraction); higher = more cells survive
Conditions: first compound 0.1581 µM
ASSAY_READOUT: relative viability
One number for each entry.

Recorded results for 4 compounds are shown here.
INSERT INTO measurements (compound, value) VALUES
  ('CC1(C)CCC(c2ccc(Cl)cc2)=C(CN2CCN(c3ccc(C(=O)NS(=O)(=O)c4ccc(N[C@H](CCN5CCOCC5)CSc5ccccc5)c(S(=O)(=O)C(F)(F)F)c4)cc3)CC2)C1 [Navitoclax] + CC(=O)Nc1cccc(-n2c(=O)n(C3CC3)c(=O)c3c(Nc4ccc(I)cc4F)n(C)c(=O)c(C)c32)c1 [Trametinib] (partner 0.02 µM)', 0.5),
  ('CC1(C)CCC(c2ccc(Cl)cc2)=C(CN2CCN(c3ccc(C(=O)NS(=O)(=O)c4ccc(N[C@H](CCN5CCOCC5)CSc5ccccc5)c(S(=O)(=O)C(F)(F)F)c4)cc3)CC2)C1 [Navitoclax] + O=C(CCCCCCC(=O)Nc1ccccc1)NO [Vorinostat] (partner 1 µM)', 0.557),
  ('CC1(C)CCC(c2ccc(Cl)cc2)=C(CN2CCN(c3ccc(C(=O)NS(=O)(=O)c4ccc(N[C@H](CCN5CCOCC5)CSc5ccccc5)c(S(=O)(=O)C(F)(F)F)c4)cc3)CC2)C1 [Navitoclax] + CCNC(=O)c1noc(-c2cc(C(C)C)c(O)cc2O)c1-c1ccc(CN2CCOCC2)cc1 [Luminespib] (partner 0.01 µM)', 0.568),
  ('CC1(C)CCC(c2ccc(Cl)cc2)=C(CN2CCN(c3ccc(C(=O)NS(=O)(=O)c4ccc(N[C@H](CCN5CCOCC5)CSc5ccccc5)c(S(=O)(=O)C(F)(F)F)c4)cc3)CC2)C1 [Navitoclax] + COc1cc2c(Oc3ccc(NC(=O)C4(C(=O)Nc5ccc(F)cc5)CC4)cc3F)ccnc2cc1OCCCN1CCOCC1 [Foretinib] (partner 0.25 µM)', 0.848);

Indicate its recorded relative viability; the compound in question is CC1(C)CCC(c2ccc(Cl)cc2)=C(CN2CCN(c3ccc(C(=O)NS(=O)(=O)c4ccc(N[C@H](CCN5CCOCC5)CSc5ccccc5)c(S(=O)(=O)C(F)(F)F)c4)cc3)CC2)C1 [Navitoclax] + Nc1nc2[nH]cc(CCc3ccc(C(=O)N[C@@H](CCC(=O)O)C(=O)O)cc3)c2c(=O)[nH]1 [Pemetrexed] (partner 0.2 µM) 0.214
